As a worked illustration, we turn to pIC50 data collected for UniProtKB P00338.
Units for pIC50: none; it is -log10 of a concentration expressed in mol/L.

| COMPOUND | TARGET OF ASSAY | pIC50 |
| --- | --- | --- |
| Cc1cc(C(=O)O)ccc1-c1ccc(/C=C2/NC(=O)N(Cc3ccc(Br)cc3)C2=O)o1 | UniProtKB P00338 | 4.47 |
| Cc1ccc(C2=NN(c3ccccc3)C(c3cn(CCC(=O)O)nc3-c3ccccc3)C2)cc1 (stereo not shown) [drawing 31] | UniProtKB P00338 | 5.23 |
| O=C1NC(=S)S/C1=C/c1cccc(OCc2ccc([N+](=O)[O-])cc2)c1 | UniProtKB P00338 | 4.89 |

Here is the next item to consider.
Q: For the record O=C1NC(=S)S/C1=C\c1cccc(OC(=O)c2cccc(F)c2)c1 , what value of pIC50 is listed for UniProtKB P00338?
Ans: 5.06

---

Molecular target: LDHb (Homo sapiens)
Sequence (P07195 whole entry, species assumed): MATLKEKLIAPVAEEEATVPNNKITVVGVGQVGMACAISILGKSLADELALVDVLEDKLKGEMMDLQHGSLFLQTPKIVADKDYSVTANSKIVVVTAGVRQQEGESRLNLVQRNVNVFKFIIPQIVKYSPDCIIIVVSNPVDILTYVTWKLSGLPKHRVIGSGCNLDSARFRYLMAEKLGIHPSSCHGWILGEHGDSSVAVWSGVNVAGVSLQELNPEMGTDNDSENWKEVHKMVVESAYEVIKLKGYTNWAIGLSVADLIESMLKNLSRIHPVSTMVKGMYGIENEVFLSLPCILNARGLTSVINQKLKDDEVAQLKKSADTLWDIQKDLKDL
VALUE KIND: IC50 (µM)
Enter your answer as a number in µM; do not include the unit.

Q: Param readout= IC50; system= LDHb (Homo sapiens); entry= Cc1ccc(C2=NN(c3ccccc3)C(c3cn(CCC(=O)O)nc3-c3ccccc3)C2)cc1 (centres unmarked) [drawing 31] ; returns value.
Ans: 17.4

---

Target: IDH1 wild-type (Homo sapiens, UniProt O75874)
Construct: The resultant fragments for IDH1 (full length) and IDH2 (residues 40-452) were cloned into vector pET41a; made in house; host or cells: E. coli Rosetta
Sequence (O75874 whole entry, the tested form may be a part): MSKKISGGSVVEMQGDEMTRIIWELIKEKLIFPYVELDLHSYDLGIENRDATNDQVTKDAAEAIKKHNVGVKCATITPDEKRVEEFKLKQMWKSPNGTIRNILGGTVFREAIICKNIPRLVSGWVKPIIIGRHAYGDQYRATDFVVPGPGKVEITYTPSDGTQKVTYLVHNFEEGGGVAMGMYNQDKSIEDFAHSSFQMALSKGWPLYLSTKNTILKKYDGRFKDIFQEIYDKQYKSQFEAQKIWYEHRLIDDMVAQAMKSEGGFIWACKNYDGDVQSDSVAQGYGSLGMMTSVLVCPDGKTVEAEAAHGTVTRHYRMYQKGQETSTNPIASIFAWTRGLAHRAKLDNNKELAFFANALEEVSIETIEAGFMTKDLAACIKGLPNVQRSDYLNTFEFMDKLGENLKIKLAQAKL
Test: Inhibition of oxidative decarboxylation of isocitrate to α-KG by IDH1 wild-type
Format: biochemical
VALUE KIND: pKi
Remember the convention: pKi equals -log10 of concentration in molar.

Q: What does the record list as pKi for O=C(O)CCC(=O)C(=O)O [α-KG, α-ketoglutarate] ?
Ans: 3.21

---

Biological target: IDH1 wild-type (Homo sapiens)
Construct: The resultant fragments for IDH1 (full length) and IDH2 (residues 40-452) were cloned into vector pET41a; made in house; host or cells: E. coli Rosetta
Assay: Inhibition of oxidative decarboxylation of isocitrate to α-KG by IDH1 wild-type
Format: biochemical
Conditions: IDH1 wt 1.5 ug/ml; competitive with isocitrate; NADP 0.5 mM; read-out: Oxalomalate Ki
Experimental: In these reactions, the substrate was varied while the cofactor was held constant at 500 uM. All reactions were performed in 150 mM NaCl, 20 mM Tris-Cl, pH 7.5, 10% glycerol, and 0.03% (w/v) BSA). Reaction progress was followed by spectroscopy at 340 nM monitoring the change in oxidation state of the cofactor. Sufficient enzyme was added to give a linear change in absorbance for 10 minutes. […]
VALUE KIND: Ki (µM)
Value expressed in µM; do not type the unit.

Q: Return reported Ki; argument: O=C(O)C(=O)C(C(=O)O)C(O)C(=O)O (stereo not shown) [Oxalomalate, oxalomalate]
Ans: 955

---

Biological target: IDH1 R132H (Homo sapiens, UniProt O75874, R132H)
Construct: The resultant fragments for IDH1 (full length) and IDH2 (residues 40-452) were cloned into vector pET41a; made in house; host or cells: E. coli
Sequence (O75874 whole entry R132H, the tested form may be a part): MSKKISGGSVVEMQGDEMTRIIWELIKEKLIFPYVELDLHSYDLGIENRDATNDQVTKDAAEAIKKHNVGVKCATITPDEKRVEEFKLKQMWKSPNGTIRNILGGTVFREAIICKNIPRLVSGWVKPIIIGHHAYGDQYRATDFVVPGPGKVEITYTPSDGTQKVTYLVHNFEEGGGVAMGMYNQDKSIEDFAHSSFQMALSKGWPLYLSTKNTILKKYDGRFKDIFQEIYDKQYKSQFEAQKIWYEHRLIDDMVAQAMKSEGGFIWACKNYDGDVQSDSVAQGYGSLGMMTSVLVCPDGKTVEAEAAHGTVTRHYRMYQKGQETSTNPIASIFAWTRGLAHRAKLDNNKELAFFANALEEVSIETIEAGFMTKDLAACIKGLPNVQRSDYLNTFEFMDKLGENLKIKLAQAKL
Assay: Inhibition of oxidative decarboxylation of isocitrate to α-KG by IDH1 R132H
Type: biochemical
Details: IDH1R132H 60 ug/ml; competitive with isocitrate; NADP 0.5 mM; read-out: Oxalomalate Ki
VALUE KIND: Ki (µM)
Write the value in µM as a bare number.

Q: Please tell me: Ki of O=C(O)C(=O)C(C(=O)O)C(O)C(=O)O (stereo not shown) [Oxalomalate, oxalomalate] , system IDH1 R132H (Homo sapiens, UniProt O75874, R132H)?
Ans: 951

---

Target: IDH1 R132H (Homo sapiens, UniProt O75874, R132H)
Construct: The resultant fragments for IDH1 (full length) and IDH2 (residues 40-452) were cloned into vector pET41a; made in house; host or cells: E. coli
Test: High throughput screening for IDH1 R132H inhibitors (NADPH/αKG, resazurin detection)
Assay type: biochemical
Details: ratio of ICDH IC50 at 40 uM vs 4 uM NADPH
VALUE KIND: IC50 Ratio (40/4)
The answer should be a number; do not append a unit.

Examples with answers:
| COMPOUND | TARGET OF ASSAY | IC50 Ratio (40/4) |
| --- | --- | --- |
| O=C1NC(=S)S/C1=C/c1cccc(OCc2ccc([N+](=O)[O-])cc2)c1 | IDH1 R132H (Homo sapiens, UniProt O75874, R132H) | 1.39 |
| O=C1NC(=S)S/C1=C\c1cccc(OC(=O)c2cccc(F)c2)c1 | IDH1 R132H (Homo sapiens, UniProt O75874, R132H) | 1.15 |
| Cc1cc(C(=O)O)ccc1-c1ccc(/C=C2/NC(=O)N(Cc3ccc(Br)cc3)C2=O)o1 | IDH1 R132H (Homo sapiens, UniProt O75874, R132H) | 1.28 |
| Cc1ccc(C2=NN(c3ccccc3)C(c3cn(CCC(=O)O)nc3-c3ccccc3)C2)cc1 (centres unmarked) [drawing 31] | IDH1 R132H (Homo sapiens, UniProt O75874, R132H) | 3.38 |

Below: the item to evaluate.
Q: // lookup IC50 Ratio (40/4) for Cc1c(/C=C2\Sc3ccccc3C2=O)c(O)n2c(nc3ccccc32)c1C#N
Ans: 17.42

---

Molecular target: IDH1 R132H (Homo sapiens, UniProt O75874, R132H)
Construct: The resultant fragments for IDH1 (full length) and IDH2 (residues 40-452) were cloned into vector pET41a
Assay: High throughput screening for IDH1 R132H inhibitors (NADPH/αKG, resazurin detection)
Conditions: IDH1R132H; presumably at 10× Km of NADPH
VALUE KIND: pIC50
Answer as the number alone; pIC50 is minus log10 of concentration in mol/L.

Q: Quick check: pIC50 of Cc1c(C=C2Sc3ccccc3C2=O)c(O)n2c(nc3ccccc32)c1C#N [first example] ?
Ans: 5.24
